Parameter: IC50. Scope: all listed entries.
Test system: CEM cells HIV-1 protection, formazan growth assay
MEASUREMENT_DESCRIPTION: NCI AIDS Antiviral Assay
COND: measured here: growth of uninfected CEM cells
MEASURED_PROPERTY: IC50

MOLECULE: N#C/C(=C/n1c(=S)[nH]c2ccc([N+](=O)[O-])cc21)c1ccc([N+](=O)[O-])cc1
MEASURED_PROPERTY: IC50
RESULT: 117 µM

MOLECULE: CC(C)(C)Cc1cc(O)ccc1O
MEASURED_PROPERTY: IC50
RESULT: 3.39 µM

MOLECULE: CCOC(=O)NC(Nc1ncn(C(NC(=O)OCC)(C(F)(F)F)C(F)(F)F)n1)(C(F)(F)F)C(F)(F)F
MEASURED_PROPERTY: IC50
RESULT: > 200 µM

MOLECULE: O=C(c1ccccc1)c1ccc(C(=O)c2ccccc2)cc1
MEASURED_PROPERTY: IC50
RESULT: > 5.01 µM

MOLECULE: O=P1(O)c2ccccc2Oc2ccccc21
MEASURED_PROPERTY: IC50
RESULT: > 200 µM

MOLECULE: O=c1ssc2ncccc12
MEASURED_PROPERTY: IC50
RESULT: > 100 µM

MOLECULE: Cc1ccc2c(c1)C1(C)c3cc(C)ccc3SP1S2 (configuration not stated)
MEASURED_PROPERTY: IC50
RESULT: > 12.6 µM

MOLECULE: S=C1SCN2CCN3CSC(=S)N(CCN1C2)C3
MEASURED_PROPERTY: IC50
RESULT: > 81.3 µM

MOLECULE: CC(C)C1N2CCCCC2[C@@H]2c3[nH]c4ccccc4c3CCN12 (some centres not stated)
MEASURED_PROPERTY: IC50
RESULT: > 81.3 µM

MOLECULE: CCCCCC(CO)C(O)(C(F)(F)F)C(F)(F)F (configuration not stated)
MEASURED_PROPERTY: IC50
RESULT: 70.8 µM

MOLECULE: O=C(/C=C/CC(O)(c1ccccc1)c1ccccc1)Nc1ccccc1Cl
MEASURED_PROPERTY: IC50
RESULT: > 19.1 µM

MOLECULE: C/C(O)=C/c1nc2sc(C)c(C)c2c(=O)s1
MEASURED_PROPERTY: IC50
RESULT: 39.8 µM

====

Test system: CEM cells HIV-1 protection, formazan growth assay
MEASUREMENT_DESCRIPTION: NCI AIDS Antiviral Assay
The entries below come with measured EC50 values attached.
MEASURED_PROPERTY: EC50

MOLECULE: Nc1ccc2c3c1cccc3c(=O)n1c3ccc(Cc4ccc5c(c4)nc4c6ccc(N)c7cccc(c(=O)n54)c76)cc3nc21
RESULT: > 100 µM
--
MOLECULE: CCOc1ccc(NC(=O)CCC(=O)NN)cc1
RESULT: > 724 µM
--
MOLECULE: COc1ccc2nc3ccc(OC)cc3c(S(=O)(=O)Cc3ccc([N+](=O)[O-])cc3)c2c1
RESULT: > 200 µM
--
MOLECULE: CC(=O)NC1(C)C(C)C2CC1C(C)C2(C)C (stereo not given)
RESULT: > 85.1 µM
--
MOLECULE: O=C(C[P+](c1ccccc1)(c1ccccc1)c1ccccc1)C[P+](c1ccccc1)(c1ccccc1)c1ccccc1
RESULT: > 200 µM
--
MOLECULE: Cc1ccc2c(c1)C(=O)c1cc(C)cc(C(=O)O)c1-2
RESULT: > 200 µM
--
MOLECULE: Oc1cccc(/C=C/c2ccncc2)c1
RESULT: > 36.3 µM
--
MOLECULE: COc1cc(/C=N\NS(=O)(=O)c2ccc(N)cc2)ccc1O
RESULT: > 295 µM
--
MOLECULE: CCOC(=O)N1CCN(P(=O)(Nc2ccc3nc(NC(=O)OC)[nH]c3c2)Oc2ccccc2)CC1 (stereo not given)
RESULT: > 135 µM
--
MOLECULE: c1ccc2c(c1)c1ccccc1c1nccnc21
RESULT: > 200 µM
